Origin of values: patent US4415577A

Assay: acute toxicity (LD50) in mice after oral administration
Assay type: in vivo, mouse (male NMRI)
Conditions: mouse, in vivo; male NMRI-mice, oral, 50% mortality on the 7th day; read-out: LD50 per os
Counter-ions that a name gives are not always drawn.
Below, each entry is listed alongside its reported LD50 at 168 h.
Reply with just the number (in µmol/kg).

[ask] Query: LD50 at 168 h; subject: CCCCCC1C2CC(CN3CCCCC23)C2CCCCN21 (stereo not drawn) [Pentyl sparteine tartrate]
[reply] 1800

Next up:
[ask] Need LD50 at 168 h, item C1CCN2C[C@@H]3C[C@@H](CN4CCCC[C@@H]34)[C@H]2C1 [Sparteine sulfate]
[reply] 540
